target.under.test: GABA-A receptor; alpha-1/beta-2/gamma-2 (Homo sapiens, UniProt P14867+P18507+P47870)
Sequence (P14867 whole entry): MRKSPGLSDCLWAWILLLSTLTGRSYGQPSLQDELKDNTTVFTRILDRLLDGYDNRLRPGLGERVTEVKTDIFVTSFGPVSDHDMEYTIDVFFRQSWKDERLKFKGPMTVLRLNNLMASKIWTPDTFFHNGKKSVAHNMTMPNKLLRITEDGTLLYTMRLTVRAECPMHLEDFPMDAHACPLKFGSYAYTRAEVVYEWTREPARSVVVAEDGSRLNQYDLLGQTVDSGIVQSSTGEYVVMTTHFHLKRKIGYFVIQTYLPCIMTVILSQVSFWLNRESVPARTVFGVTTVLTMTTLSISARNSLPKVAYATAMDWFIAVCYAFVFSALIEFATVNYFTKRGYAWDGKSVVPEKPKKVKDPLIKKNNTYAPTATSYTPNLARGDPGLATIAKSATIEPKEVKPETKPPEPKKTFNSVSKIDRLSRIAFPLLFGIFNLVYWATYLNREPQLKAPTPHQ
Sequence (P47870 whole entry): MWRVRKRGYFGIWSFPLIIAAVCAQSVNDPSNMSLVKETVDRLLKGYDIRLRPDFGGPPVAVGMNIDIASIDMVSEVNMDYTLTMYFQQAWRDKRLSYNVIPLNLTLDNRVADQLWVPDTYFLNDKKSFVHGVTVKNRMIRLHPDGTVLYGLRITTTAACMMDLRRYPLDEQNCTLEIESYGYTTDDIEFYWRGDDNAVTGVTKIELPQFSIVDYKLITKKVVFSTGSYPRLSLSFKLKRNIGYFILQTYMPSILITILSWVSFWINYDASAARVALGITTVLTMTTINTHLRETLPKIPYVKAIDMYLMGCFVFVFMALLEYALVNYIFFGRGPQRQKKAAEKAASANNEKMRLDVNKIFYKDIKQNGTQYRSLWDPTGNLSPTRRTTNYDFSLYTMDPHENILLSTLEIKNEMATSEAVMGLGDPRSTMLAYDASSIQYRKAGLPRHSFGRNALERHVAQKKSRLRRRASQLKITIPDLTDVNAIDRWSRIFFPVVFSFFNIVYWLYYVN
Sequence (P18507 whole entry): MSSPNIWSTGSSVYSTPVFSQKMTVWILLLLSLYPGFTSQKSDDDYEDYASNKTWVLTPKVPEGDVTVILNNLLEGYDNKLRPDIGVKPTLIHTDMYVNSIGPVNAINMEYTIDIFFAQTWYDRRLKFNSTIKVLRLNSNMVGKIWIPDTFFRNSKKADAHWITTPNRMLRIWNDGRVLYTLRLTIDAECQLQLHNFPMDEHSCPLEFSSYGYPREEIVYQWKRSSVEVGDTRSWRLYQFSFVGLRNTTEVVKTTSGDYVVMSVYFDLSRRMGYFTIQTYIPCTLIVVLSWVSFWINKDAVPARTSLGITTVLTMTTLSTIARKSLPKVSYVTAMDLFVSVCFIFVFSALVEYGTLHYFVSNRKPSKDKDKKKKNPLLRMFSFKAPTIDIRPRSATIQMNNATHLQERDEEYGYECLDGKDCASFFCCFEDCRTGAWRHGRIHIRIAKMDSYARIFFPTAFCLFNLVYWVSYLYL
assay.details: Binding affinity evaluated by ability to displace [3H]Ro-151788 from recombinant human Gamma-aminobutyric acid A receptor alpha-1-beta-2-gamma-2 expressed in L(tk-)cells
pKi: −log10 of the molar value.
value.type: pKi

>  <molecule>
O=C(C(=O)N1CCc2ccccc2C1)c1c[nH]c2ccccc12

>  <value.type>
pKi

>  <observed.measurement>
6.42

$$$$
>  <molecule>
CN(Cc1ccccc1)C(=O)C1CCCN(C(=O)C(=O)c2c[nH]c3ccccc23)C1 (centres undefined)

>  <value.type>
pKi

>  <observed.measurement>
7.85

$$$$
>  <molecule>
CN(Cc1ccccc1)C(=O)[C@@H]1CCCN(C(=O)C(=O)c2c[nH]c3ccccc23)C1

>  <value.type>
pKi

>  <observed.measurement>
8.14

$$$$
>  <molecule>
CCOC(=O)[C@@H]1C[C@H](C(=O)OCC)CN(C(=O)C(=O)c2c[nH]c3ccccc23)C1

>  <value.type>
pKi

>  <observed.measurement>
7.85

$$$$
>  <molecule>
CCOC(=O)CC1CCCN1C(=O)C(=O)c1c[nH]c2ccccc12 (centres undefined)

>  <value.type>
pKi

>  <observed.measurement>
6.05

$$$$
>  <molecule>
O=C(C(=O)N1CCCC1Cc1ccccc1)c1c[nH]c2ccccc12 (centres undefined)

>  <value.type>
pKi

>  <observed.measurement>
6.36

$$$$
>  <molecule>
O=C(C(=O)N1Cc2ccccc2C1)c1c[nH]c2ccccc12

>  <value.type>
pKi

>  <observed.measurement>
6.70

$$$$
>  <molecule>
CCOC(=O)[C@@H]1C[C@@H](C(=O)OCC)CN(C(=O)C(=O)c2c[nH]c3ccccc23)C1

>  <value.type>
pKi

>  <observed.measurement>
6.40

$$$$
>  <molecule>
O=C(C(=O)N1CCCC(C(=O)OCc2ccccc2)C1)c1c[nH]c2ccccc12 (centres undefined)

>  <value.type>
pKi

>  <observed.measurement>
7.11

$$$$
>  <molecule>
O=C(C(=O)N1CCCC(C(=O)NCc2ccccc2)C1)c1c[nH]c2ccccc12 (centres undefined)

>  <value.type>
pKi

>  <observed.measurement>
6.52

$$$$
>  <molecule>
CCOC(=O)C1CCCN(C(=O)C(=O)c2c[nH]c3ccccc23)C1 (centres undefined)

>  <value.type>
pKi

>  <observed.measurement>
6.06

$$$$
>  <molecule>
CCOC(=O)CC1CCCN1C(=O)C(=O)c1c[nH]c2c(C)cccc12 (centres undefined)

>  <value.type>
pKi

>  <observed.measurement>
6.29

$$$$
>  <molecule>
CCOC(=O)CC1CCCN1C(=O)C(=O)c1c[nH]c2c(OC)cccc12 (centres undefined)

>  <value.type>
pKi

>  <observed.measurement>
6.34

$$$$
>  <molecule>
CN(Cc1ccccc1)C(=O)[C@H]1CCCN(C(=O)C(=O)c2c[nH]c3ccccc23)C1

>  <value.type>
pKi

>  <observed.measurement>
6.85

$$$$

====

The following compounds are shown together with reported Ki values.
target.under.test: GABA-A receptor; alpha-2/beta-3/gamma-2 (Homo sapiens, UniProt P18507+P28472+P47869)
Sequence (P28472 whole entry, one chain of several): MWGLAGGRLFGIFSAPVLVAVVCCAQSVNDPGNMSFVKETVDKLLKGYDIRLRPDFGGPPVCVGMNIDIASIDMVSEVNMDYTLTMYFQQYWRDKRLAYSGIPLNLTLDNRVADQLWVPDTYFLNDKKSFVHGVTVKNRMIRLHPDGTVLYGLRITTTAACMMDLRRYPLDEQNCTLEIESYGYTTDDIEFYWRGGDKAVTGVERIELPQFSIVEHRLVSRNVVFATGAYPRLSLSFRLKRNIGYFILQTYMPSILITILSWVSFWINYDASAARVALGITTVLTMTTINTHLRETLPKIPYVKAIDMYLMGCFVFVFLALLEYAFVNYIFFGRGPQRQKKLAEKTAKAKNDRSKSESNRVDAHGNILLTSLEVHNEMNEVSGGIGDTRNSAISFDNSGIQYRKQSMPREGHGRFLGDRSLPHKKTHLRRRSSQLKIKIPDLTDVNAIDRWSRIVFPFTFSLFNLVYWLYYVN
Sequence (P47869 whole entry, one chain of several): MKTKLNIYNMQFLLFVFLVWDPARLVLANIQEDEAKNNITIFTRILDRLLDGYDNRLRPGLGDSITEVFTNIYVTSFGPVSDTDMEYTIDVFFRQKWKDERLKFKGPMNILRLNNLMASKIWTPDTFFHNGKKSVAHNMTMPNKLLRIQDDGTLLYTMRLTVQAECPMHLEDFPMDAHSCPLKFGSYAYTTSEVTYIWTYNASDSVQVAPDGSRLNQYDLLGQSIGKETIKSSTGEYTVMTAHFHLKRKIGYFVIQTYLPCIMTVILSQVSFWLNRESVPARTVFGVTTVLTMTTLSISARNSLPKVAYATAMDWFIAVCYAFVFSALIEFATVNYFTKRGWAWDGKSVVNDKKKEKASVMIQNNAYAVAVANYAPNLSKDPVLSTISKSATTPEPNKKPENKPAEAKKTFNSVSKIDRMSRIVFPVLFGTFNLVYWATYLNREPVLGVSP
assay.details: Binding affinity evaluated by ability to displace [3H]-Ro-15-1788 from recombinant human Gamma-aminobutyric acid A receptor alpha-2-beta-3-gamma-2 expressed in L(tk-)cells

>  <compound>
CCOC(=O)CC1CCCN1C(=O)C(=O)c1c[nH]c2c(C)cccc12 (centres undefined)

>  <Ki, nM>
440

$$$$
>  <compound>
CCOC(=O)CC1CCCN1C(=O)C(=O)c1c[nH]c2ccccc12 (centres undefined)

>  <Ki, nM>
430

$$$$
>  <compound>
CN(Cc1ccccc1)C(=O)[C@@H]1CCCN(C(=O)C(=O)c2c[nH]c3ccccc23)C1

>  <Ki, nM>
19

$$$$
>  <compound>
CN(Cc1ccccc1)C(=O)[C@H]1CCCN(C(=O)C(=O)c2c[nH]c3ccccc23)C1

>  <Ki, nM>
250

$$$$

====

Entries and their pKi
target.under.test: GABA-A receptor; alpha-2/beta-3/gamma-2 (Homo sapiens, UniProt P18507+P28472+P47869)
assay.details: Binding affinity evaluated by ability to displace [3H]-Ro-15-1788 from recombinant human Gamma-aminobutyric acid A receptor alpha-2-beta-3-gamma-2 expressed in L(tk-)cells
pKi: −log10 of the molar value.

>  <compound>
CN(Cc1ccccc1)C(=O)C1CCCN(C(=O)C(=O)c2c[nH]c3ccccc23)C1 (stereo not given)

>  <pKi>
7.40

$$$$
>  <compound>
CCOC(=O)C1CCCN(C(=O)C(=O)c2c[nH]c3ccccc23)C1 (stereo not given)

>  <pKi>
6.41

$$$$
>  <compound>
CCOC(=O)[C@@H]1C[C@@H](C(=O)OCC)CN(C(=O)C(=O)c2c[nH]c3ccccc23)C1

>  <pKi>
6.70

$$$$
>  <compound>
O=C(C(=O)N1CCCC(C(=O)NCc2ccccc2)C1)c1c[nH]c2ccccc12 (stereo not given)

>  <pKi>
6.01

$$$$
>  <compound>
O=C(C(=O)N1CCCC(C(=O)OCc2ccccc2)C1)c1c[nH]c2ccccc12 (stereo not given)

>  <pKi>
6.74

$$$$
